target: CDK8/CycC (Homo sapiens, UniProt P49336)
Sequence (P49336 whole entry): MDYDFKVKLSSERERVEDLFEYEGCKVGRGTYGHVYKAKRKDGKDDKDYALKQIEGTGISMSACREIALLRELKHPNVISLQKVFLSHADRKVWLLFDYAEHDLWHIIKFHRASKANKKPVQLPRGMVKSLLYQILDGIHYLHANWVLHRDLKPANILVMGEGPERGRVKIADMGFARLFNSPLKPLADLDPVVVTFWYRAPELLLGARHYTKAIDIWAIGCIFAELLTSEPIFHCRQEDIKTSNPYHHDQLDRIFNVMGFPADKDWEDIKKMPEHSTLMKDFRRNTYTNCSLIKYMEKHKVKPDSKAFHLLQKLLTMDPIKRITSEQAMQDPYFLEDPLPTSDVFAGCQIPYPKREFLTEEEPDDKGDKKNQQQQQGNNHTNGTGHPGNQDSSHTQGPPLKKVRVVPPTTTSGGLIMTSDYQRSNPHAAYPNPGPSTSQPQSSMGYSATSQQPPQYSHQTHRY
Sequence (P24863 whole entry partner): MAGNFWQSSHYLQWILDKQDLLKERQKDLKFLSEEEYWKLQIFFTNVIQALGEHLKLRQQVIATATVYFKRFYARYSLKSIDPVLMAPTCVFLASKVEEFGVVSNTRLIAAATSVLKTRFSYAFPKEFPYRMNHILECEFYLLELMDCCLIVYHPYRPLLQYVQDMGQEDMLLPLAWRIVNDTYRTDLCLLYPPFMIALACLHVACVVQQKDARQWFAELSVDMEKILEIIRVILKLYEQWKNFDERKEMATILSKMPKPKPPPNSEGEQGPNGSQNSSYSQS
test_method_notes: Radiometric protein kinase assay (33PanQinase Activity Assay, ProQinase)
measurement_context: 1.0 μM ATP, 1.0 μg/50 μL substrate RBER-IRStide, duplicate measurements, read-out: CDK8 Kinase inhibition IC50
measurement_label: pIC50
pIC50 is a log-scale quantity: -log10 of the concentration expressed in molar.

Observe how each entry below is paired with its result.
Cc1nc(NC(=O)Nc2ccc(CN3CCOCC3)c(C(F)(F)F)c2)sc1-c1ccnc(C(C)C)n1 : 6.69
CCN1CCN(Cc2ccc(NC(=O)Nc3ncc(-c4ccnc(NC)n4)s3)cc2C(F)(F)F)CC1 : 7.92

The recorded pIC50 for entry CNc1nccc(-c2sc(NC(=O)Nc3ccc(Cl)cc3)nc2C)n1 equals 8.05

The compound listed as CNc1nccc(-c2sc(NC(=O)Nc3ccccc3)nc2C)n1 shows pIC50 equal to 7.44

Entry CNc1nccc(-c2sc(NC(=O)Nc3cccc([N+](=O)[O-])c3)nc2C)n1 , pIC50 reported as 8.00
